Tested on: OVCAR-4 ovarian
experimentNotes: NCI tumour cell line growth inhibition, 48 h
Entries and their TGI values follow.

{"compound": "O=C1C(Cl)=C(Cl)C(=O)C2=C1C1c3ccccc3C2c2ccccc21", "TGI": "> 100 µM"}
{"compound": "OC1c2ccccc2CCC1C(O)(C(F)(F)F)C(F)(F)F (stereo not given)", "TGI": "> 100 µM"}
{"compound": "Clc1ccc2c(c1)C(Br)c1cc(Cl)cc(Cl)c1-2 (stereo not given)", "TGI": "> 100 µM"}
{"compound": "C=CCN1CCN([C@H](c2ccc(C(=O)N(CC)CC)cc2)c2cccc(OC)c2)CC1", "TGI": "> 25 µM"}
{"compound": "CCOC(=O)C(C)c1c(C(=O)c2ccc(C)nc2)c2ccccc2n1C (stereo not given)", "TGI": "> 100 µM"}
{"compound": "Clc1ccc(OCc2nn3c(CCCCc4nnc5sc(COc6ccc(Cl)cc6Cl)nn45)nnc3s2)c(Cl)c1", "TGI": "> 100 µM"}
{"compound": "O=[N+]([O-])c1cc(Cl)c(Cl)cc1[N+](=O)[O-]", "TGI": "4.63 µM"}
{"compound": "CCC(CC)c1nc(Nc2cccc(OC)c2)c2ccccc2n1", "TGI": "13.6 µM"}
{"compound": "COC(=O)/C(=N\\NC(=O)c1ccccc1O)C(C#N)c1ccccc1 (stereo not given)", "TGI": "> 50 µM"}
{"compound": "COC1OC(COC(C)=O)C(OC(C)=O)C(OC(C)=O)C1NC(=O)N(CCCl)N=O (stereo not given)", "TGI": "> 100 µM"}

* * *

System: DU-145 prostate
experimentNotes: NCI tumour cell line growth inhibition, 48 h

{"compound": "CC(C)(Cl)C(Br)CCC(C)(Br)C(Br)CBr (configuration not stated)", "target": "DU-145 prostate", "TGI": "39.2 µM"}
{"compound": "CCC(CC)c1nc(Nc2cccc(OC)c2)c2ccccc2n1", "target": "DU-145 prostate", "TGI": "12.8 µM"}
{"compound": "CCO/C=N/C1=C(C#N)C(c2ccc(OC)cc2)c2sc3c(F)cccc3c2O1 (configuration not stated)", "target": "DU-145 prostate", "TGI": "57.2 µM"}
{"compound": "CN(C)CCCNC(=O)c1cc2/c(=C\\c3ccc(N(C)C)cc3)c3ccccc3n2[n+]1C", "target": "DU-145 prostate", "TGI": "> 100 µM"}
{"compound": "COc1ccc(NC2=NCCO2)c2c1CCCC2", "target": "DU-145 prostate", "TGI": "> 100 µM"}
{"compound": "Cn1ccc(=O)c2c(O)c3ccccc3c(O)c21", "target": "DU-145 prostate", "TGI": "> 100 µM"}
{"compound": "CNC(=O)NCC1OC(n2cnc3c(NC(=O)Nc4ccccc4)ncnc32)C(O[Si](C)(C)C(C)(C)C)C1CC(=O)N(C)OC (configuration not stated)", "target": "DU-145 prostate", "TGI": "> 100 µM"}
{"compound": "N[C@]1(C(=O)O)C[C@@H]2C(Br)=NO[C@@H]2C1", "target": "DU-145 prostate", "TGI": "> 100 µM"}
{"compound": "Nc1nc(N)c(N=Nc2ccccc2)c(-c2ccccc2)n1", "target": "DU-145 prostate", "TGI": "34.1 µM"}
{"compound": "CCC(=O)/C=C/c1ccccc1", "target": "DU-145 prostate", "TGI": "> 100 µM"}
{"compound": "C1CSC(Sc2nc(SC3=NCCS3)nc(SC3=NCCS3)n2)=N1", "target": "DU-145 prostate", "TGI": "> 100 µM"}
{"compound": "Cc1ccc(O)c(-c2cc(-c3cccc(Br)c3)on2)c1", "target": "DU-145 prostate", "TGI": "> 100 µM"}
{"compound": "O=C(CSc1nnc(SCC(=O)NN=C2CCCCC2)s1)NN=C1CCCCC1", "target": "DU-145 prostate", "TGI": "> 100 µM"}
{"compound": "CCCN=Cc1c(O)c(O)c(C(C)C)c2cc(C)c(-c3c(C)cc4c(C(C)C)c(O)c(O)c(C=NCCC)c4c3O)c(O)c12", "target": "DU-145 prostate", "TGI": "> 100 µM"}
{"compound": "CCOC(=O)C1=C(Cl)c2cccnc2C1=O", "target": "DU-145 prostate", "TGI": "55.6 µM"}
{"compound": "COCOc1cc(OCOC)cc(C(=O)Oc2ccccc2)c1", "target": "DU-145 prostate", "TGI": "> 100 µM"}
{"compound": "C[n+]1c(-c2ccccc2)c2cc(N)ccc2c2ccccc21", "target": "DU-145 prostate", "TGI": "57.3 µM"}
{"compound": "Cn1c(-c2ccccc2)cc(-c2ccsc2)c1-c1ccsc1", "target": "DU-145 prostate", "TGI": "> 100 µM"}
{"compound": "CC(=O)/C=C/c1ccc(OCc2ccc(C(C)(C)C)cc2)cc1", "target": "DU-145 prostate", "TGI": "> 1000 µM"}
{"compound": "Cc1ccc(S(=O)(=O)NC(=O)NC(C(=O)O)C(C)C)cc1 (configuration not stated)", "target": "DU-145 prostate", "TGI": "> 100 µM"}
{"compound": "O=c1c(Cc2c(O)ccc3ccccc23)nnc2sc(-c3nn4c(=O)c(Cc5c(O)ccc6ccccc56)nnc4s3)nn12", "target": "DU-145 prostate", "TGI": "> 100 µM"}
{"compound": "CCn1cc(C(=O)O)c(=O)c2cc(F)c(N3CCN(CN4C(=O)/C(=N\\c5ncc(Cc6cc(OC)c(OC)c(OC)c6)c(N)n5)c5cc(Cl)ccc54)CC3)cc21", "target": "DU-145 prostate", "TGI": "> 100 µM"}
{"compound": "O=C1C(Cl)=C(N2CCN(CCOCCO)CC2)C(=O)c2ncccc21", "target": "DU-145 prostate", "TGI": "> 10 µM"}
{"compound": "c1cc2c(s1)SSSSS2", "target": "DU-145 prostate", "TGI": "34.1 µM"}
{"compound": "CCOC(=O)C(/C=N\\C(=S)Nc1c(CC)cccc1C(C)(C)C)=C(/O)c1ccccc1", "target": "DU-145 prostate", "TGI": "> 100 µM"}
{"compound": "Cc1cc2c(O)c(c1)COCc1cc(C)cc(c1O)COCc1cc(C)cc(c1O)COC2", "target": "DU-145 prostate", "TGI": "> 100 µM"}
{"compound": "O=c1cc(-c2ccccc2)c2ccc(O)c(CN(CCCl)CCCl)c2o1", "target": "DU-145 prostate", "TGI": "> 100 µM"}
{"compound": "Cc1ccc(O)c(C(c2ccc(C(c3cc(C)ccc3O)c3cc(C)ccc3O)cc2)c2cc(C)ccc2O)c1", "target": "DU-145 prostate", "TGI": "3.21 µM"}
{"compound": "CCOCCOC(=O)C1CCC(=O)N1CN(C(C)=O)c1cc(OC)ccc1OC (configuration not stated)", "target": "DU-145 prostate", "TGI": "> 100 µM"}
{"compound": "CC(=O)NCCC1CNc2ccccc21 (configuration not stated)", "target": "DU-145 prostate", "TGI": "> 100 µM"}
{"compound": "O=[N+]([O-])c1cc(Cl)c(Cl)cc1[N+](=O)[O-]", "target": "DU-145 prostate", "TGI": "4.42 µM"}
{"compound": "Nc1nonc1C(=Nc1ccc(F)c(Cl)c1)NO", "target": "DU-145 prostate", "TGI": "> 100 µM"}
{"compound": "NCCCOc1cc2ccccc2cc1C(=O)NCCOc1nc2ccccc2cc1C(=O)Nc1ccc(Cl)cc1O", "target": "DU-145 prostate", "TGI": "2.67 µM"}
{"compound": "CC(=O)Oc1c(-c2ccccc2)oc2ccccc12", "target": "DU-145 prostate", "TGI": "13.9 µM"}
{"compound": "O=C1c2[nH]c3ccccc3c2CCN2CCCCC12 (configuration not stated)", "target": "DU-145 prostate", "TGI": "> 100 µM"}
{"compound": "CCOC(=O)c1csc(NC(=O)CN(C)C)n1", "target": "DU-145 prostate", "TGI": "> 100 µM"}
{"compound": "CC(=O)Nc1ccc(S(=O)(=O)Nc2nc(-c3ccc(Cl)cc3)cc(N3N=C(c4ccc(Br)cc4)CC3c3ccccc3)n2)cc1 (configuration not stated)", "target": "DU-145 prostate", "TGI": "62.4 µM"}
{"compound": "Cc1cc2c(s1)C(N)CC2=O (configuration not stated)", "target": "DU-145 prostate", "TGI": "> 100 µM"}
{"compound": "CC1(C)C(N(O)C(=O)Nc2ccc(Cl)cc2)N(c2ccc(Cl)cc2)C(=O)N1CC(=O)N/N=C/C=C/c1ccc([N+](=O)[O-])o1 (configuration not stated)", "target": "DU-145 prostate", "TGI": "4.07 µM"}
{"compound": "CCOC(=O)C1C(=O)C=C(c2cc(C)ccc2O)CC1c1cccc(Cl)c1 (configuration not stated)", "target": "DU-145 prostate", "TGI": "> 100 µM"}
{"compound": "COC(=O)[C@@H](C)C[C@H](Cc1ccc2ccccc2c1)NC(=O)c1csc([C@@H](C[C@H](C(C)C)N(C)C(=O)[C@@H](NC(=O)[C@H]2CCCCN2C)C(C)C)OC(C)=O)n1", "target": "DU-145 prostate", "TGI": "> 25 µM"}
{"compound": "CN(CCCCCl)P(=O)(OCC1=CC(=O)c2ccccc2C1=O)OC[C@H]1O[C@@H](n2cc(F)c(=O)[nH]c2=O)C[C@@H]1O (some centres not stated)", "target": "DU-145 prostate", "TGI": "5.53 µM"}

Cited source for all entries: PubChem BioAssay (NCI)
